Experiment: chemical genetic growth profiling, strain panel (AID 1159580);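 note: tested at 20 µM; growth read once vehicle control cultures reached saturation at 30 °C; 1 = growth at the plate median or of vehicle wells; lower values mean less growth of the strain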
Settings: S. cerevisiae deletion strains, growth OD, locus YJR075W, strain HOC1, hits give low values
About 2,000 (36%) of roughly 5,500 compounds were called active. Inconclusive results (about 18%) are left out. This is one part of the list.
# normalized growth listing for each entry below
Readout kind: normalized growth

>>> print(df.to_string())
                                    compound  endpoint_value
 0  C=C1c2c(Cl)ccc(O)c2C(O)=C2C(=O)[C@]3(O)C(O)=C(C(N)=O)C(=O)[C@@H](N(C)C)[C@@H]3[C@@H](O)[C@H]12            0.96
 1  CCOC(=O)[C@H](CCc1ccccc1)N[C@@H](C)C(=O)N1CCC[C@H]1C(=O)O            1.01
 2  CC12CCC(O)CC1CCC1C2[C@H](O)CC2(C)C(C3=CC(=O)OC3)CCC12O (some centres not stated)            1.03
 3  CSc1sc(C#N)c2c1C(O)CCC2 (configuration not stated)            0.96
 4                    C#CCN[C@H](C)Cc1ccccc1           0.994
 5  FC(F)(F)c1cc(-c2noc(C3CCc4ccccc4O3)n2)cc(C(F)(F)F)c1 (configuration not stated)            0.97
 6  CC(=O)Oc1ccc(/C=C/c2cc(OC(C)=O)cc(OC(C)=O)c2)cc1           0.985
 7  C=C(C)C1(O)OC(=O)C=C1OC (configuration not stated)            1.03
 8                     Cc1cccc(C)c1N=C1SCCS1           0.996
 9  O=C1N(c2ccccc2)c2ccccc2C1(Cc1ccncc1)Cc1ccncc1            1.02
10  CN(C)[C@@H]1C(=O)C(C(N)=O)=C(O)[C@@]2(O)C(=O)C3=C(O)c4c(O)cccc4[C@@](C)(O)[C@H]3[C@H](O)[C@@H]12            1.01
11                        CC(=O)Oc1cccc(O)c1               1
12  CC1c2cccc(O)c2C(O)=C2C(=O)C3(O)C(O)=C(C(N)=O)C(=O)C(N(C)C)C3C(O)C21 (configuration not stated)           0.971
13  O=C(O)CSC1CCS(=O)(=O)C1 (configuration not stated)            1.06
14  COc1c(Br)cc(/C(N)=N\OC(=O)c2c(-c3c(Cl)cccc3Cl)noc2C)cc1Br            1.01
15  O=c1[nH]c2cc(Cl)ccc2c(O)c1-c1ccc(Oc2ccccc2)cc1           0.987
16  CN(C)C1C(=O)C(C(N)=O)=C(O)C2(O)C(=O)C3=C(O)c4c(O)ccc(Cl)c4C(C)(O)C3CC12 (configuration not stated)            1.01
17  C=C1c2cccc(O)c2C(O)=C2C(=O)[C@]3(O)C(O)=C(C(N)=O)C(=O)[C@@H](N(C)C)[C@@H]3[C@@H](O)[C@H]12           0.992
18  CC(=O)Oc1ccc(C(c2ccc(OC(C)=O)cc2)c2ccccn2)cc1           0.978
19  Cc1ccc(Sc2ccc([N+](=O)[O-])cc2/C=C2\SC(=S)NC2=O)cc1           0.976
20  C[C@H](CCC(=O)O)[C@H]1CCC2C3C(=O)CC4CC(=O)CC[C@]4(C)C3CC(=O)[C@@]21C (some centres not stated)            1.02
21    CSc1ncc(C#N)c2nc(-c3ccc(N(C)C)cc3)nn12           0.994

---

Experiment: chemical genetic growth profiling, strain panel (AID 1159580);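 note: tested at 20 µM; growth read once vehicle control cultures reached saturation at 30 °C; 1 = growth at the plate median or of vehicle wells; lower values mean less growth of the strain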
Conditions: S. cerevisiae deletion strains, growth OD, locus YEL037C, strain rad23, hits give low values
The whole screen tested about 5,500 compounds, of which about 2,000 (36%) were called active. Roughly 18% stayed inconclusive and do not appear here. The list shows a part of the results.
# normalized growth listing for each entry below
Readout kind: normalized growth

In [3]: df
Out[3]:
                                    compound       readout_kind  endpoint_value
 0  O=P1(N(CCCl)CCCl)NCCCO1 (stereo not drawn)  normalized growth           0.984
 1  COC(=O)/C(=C1\OC(=O)C(c2ccccc2)=C1O)c1ccccc1  normalized growth           0.973
 2         CC(C)(C)NC[C@H](O)c1ccc(O)c(CO)c1  normalized growth               1
 3                              Oc1cccc(O)c1  normalized growth           0.977
 4  C/C=C\C1=C(C(=O)O)N2C(=O)C(NC(=O)C(N)c3ccc(O)cc3)C2SC1 (stereo not drawn)  normalized growth            1.01
 5                        C[n+]1ccccc1/C=N/O  normalized growth           0.998
 6                   COc1cc(C(C)=O)cc(OC)c1O  normalized growth            1.02
 7               CC(=O)c1ccc(O)c(CC=C(C)C)c1  normalized growth           0.964
 8                          NC1=NCCN1CC(=O)O  normalized growth            1.02
 9  CC(CCc1ccccc1)NCC(O)c1ccc(O)c(C(N)=O)c1 (stereo not drawn)  normalized growth               1
10  CC(N=C(NC#N)Nc1ccncc1)C(C)(C)C (stereo not drawn)  normalized growth           0.998
11         CCN(CC)CCOC(=O)C1(C2CCCCC2)CCCCC1  normalized growth           0.983
12     CC(=O)c1cc(CC=C(C)C)c(O)c(CC=C(C)C)c1  normalized growth               1

---

Assay: chemical genetic growth profiling, strain panel (AID 1159580);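 note: tested at 20 µM; growth read once vehicle control cultures reached saturation at 30 °C; 1 = growth at the plate median or of vehicle wells; lower values mean less growth of the strain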
Settings: S. cerevisiae deletion strains, growth OD, locus YOR329C, strain SCD5, hits give low values
In all, about 5,500 compounds went through this assay and about 2,000 (36%) were called active. About 18% were inconclusive and are not listed. The list shows a part of the results.
# normalized growth listing for each entry below
Readout kind: normalized growth

                           molecular_string  endpoint_value
0                        N#CSCC(=O)c1ccccc1          0.0919
1  Cc1onc(-c2c(Cl)cccc2Cl)c1C(=O)O/N=C(/N)Cc1ccc(C(C)(C)C)cc1           0.997
2  Cc1onc(-c2c(F)cccc2Cl)c1/C(N)=N\OC(=O)c1ccc(C(C)(C)C)cc1           0.996

---

# normalized growth listing for each entry below
Experiment: chemical genetic growth profiling, strain panel (AID 1159580);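 note: tested at 20 µM; growth read once vehicle control cultures reached saturation at 30 °C; 1 = growth at the plate median or of vehicle wells; lower values mean less growth of the strain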
Conditions: S. cerevisiae deletion strains, growth OD, locus YJL092W, strain hpr5, hits give low values
Hit rate of the full screen: of about 5,500 compounds, about 2,000 (36%) were called active. About 18% were inconclusive and are not listed. Some of the results follow.
Readout kind: normalized growth

>>> print(df.to_string())
                                   molecule  endpoint_value
0  CC(CCC(=O)O)[C@H]1CCC2C3CC[C@@H]4C[C@H](O)CC[C@]4(C)C3C=C[C@@]21C (stereo partly drawn)           0.986
1                 CCCc1cc(=O)[nH]c(=S)[nH]1            1.02
2        CCCN(CCC)S(=O)(=O)c1ccc(C(=O)O)cc1           0.981
3  OC[C@H]1O[C@@H](O[C@@H]2[C@@H](CO)O[C@](O)(CO)[C@H]2O)[C@H](O)[C@@H](O)[C@H]1O            1.01
4  CN(C)[C@@H]1C(=O)C(C(N)=O)=C(O)[C@@]2(O)C(=O)C3=C(O)c4c(O)ccc(Cl)c4[C@@H](O)[C@H]3C[C@@H]12           0.987
5  C=C1c2cccc(O)c2C(O)=C2C(=O)[C@]3(O)C(O)=C(C(N)=O)C(=O)[C@@H](N(C)C)[C@@H]3[C@@H](O)[C@H]12            1.01
6  C[C@H]1c2cccc(O)c2C(O)=C2C(=O)[C@]3(O)C(O)=C(C(N)=O)C(=O)[C@@H](N(C)C)[C@@H]3[C@@H](O)[C@@H]21           0.991
7  C[C@H](CCC(=O)O)[C@H]1CCC2C3C(=O)CC4CC(=O)CC[C@]4(C)C3CC(=O)[C@@]21C (stereo partly drawn)           0.971
